biological target: GMPPNP-loaded H-Ras or GTP-loaded K-Ras; assay: FP competition, displacement of probe R4007 from Ras
*1 amine or outer side, *2 acyl side, *3 side chain or, on linkers, in order; H or OH if unused. Bridges are numbered along the chain shown (N, C = ends). Primed or numbered codes have the meaning given here. [ ]: non-standard residue; d: D form. ξ: configuration not given here. DAPTZAC1 = (S)-3-(4-(acrylamidomethyl)-1H-1,2,3-triazol-1-yl)-2-aminopropanoic acid, C=CC(=O)NCc1cn(C[C@H](N[*:1])C(=O)[*:2])nn1; ADTZPA″ = (S)-2-amino-3-(1-dodecyl-1H-1,2,3-triazol-4-yl)propanoic acid, CCCCCCCCCCCCn1cc(C[C@H](N[*:1])C(=O)[*:2])nn1; m‑xylylene = m-xylylene thioether bridge between Cys; Trp(7-aza) = N[C@@H](Cc1c[nH]c2ncccc12)C(=O)O; NMePhe(4-F) = CN[C@@H](Cc1ccc(F)cc1)C(=O)O; mXylylene = c1cc(C[*:1])cc(C[*:2])c1; PEG4 = NCCOCCOCCOCCOCCC(=O)O; Phg = N[C@H](C(=O)O)c1ccccc1; Tle = CC(C)(C)[C@H](N)C(=O)O; ξPhg = NC(C(=O)O)c1ccccc1; NMeA = CN[C@@H](C)C(=O)O; Pra = C#CC[C@H](N)C(=O)O; Nva = CCC[C@H](N)C(=O)O; PEG1 = NCCOCCC(=O)O; Sar = CNCC(=O)O
READOUT_KIND: pIC50
Field pIC50 (float): negative decimal logarithm of the concentration in molar.

{"columns": ["BINDER", "pIC50"],
 "data": [
  ["cyclo([PEG1]Y[Tle]KH[NMeA][Phg][Trp(7-aza)]Y[NMePhe(4-F)][Sar][Pra]) (SMILES C#CC[C@@H]1NC(=O)CN(C)C(=O)[C@H](Cc2ccc(F)cc2)N(C)C(=O)[C@H](Cc2ccc(O)cc2)NC(=O)[C@H](Cc2c[nH]c3ncccc23)NC(=O)[C@H](c2ccccc2)NC(=O)[C@H](C)N(C)C(=O)[C@H](Cc2c[nH]cn2)NC(=O)[C@H](CCCCN)NC(=O)[C@H](C(C)(C)C)NC(=O)[C@H](Cc2ccc(O)cc2)NC(=O)CCOCCNC1=O) [R4139]", 6.28],
  ["Ac-[Nva]C[Tle]YHT[Trp(7-aza)][Trp(7-aza)]E[Trp(7-aza)][Nva]HC-NH2 (linker 2-13 via m‑xylylene) [R4100]", 8.97],
  ["Ac-[Nva]SY[Tle]A[DAPTZAC1][NMeA][ξPhg][Trp(7-aza)]Y[NMePhe(4-F)][Sar]S-NH2 [R4005]", 5.68]
]}

Which pIC50 reading was recorded for the binder Ac-[Nva]CY[Tle]KH[NMeA][Phg][Trp(7-aza)]Y[NMePhe(4-F)][Sar]C[PEG4][ADTZPA″]-NH2 (linker 2-13 via mXylylene) [R4147] ?
5.29
